test system: 377384-186-R-J1-PDC complex spheroid viability; assay: Anticancer human tumor 377384-186-R-J1-PDC patient-derived pancreatic carcinoma cell line growth inhibition [RAS]; settings: second compound 0.0949 µM; first compound 0.316 µM; stronger effect = lower value;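 also: spheroids exposed to compounds for seven days before readout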
Threshold check on viability, T/C: strictly below 2% is 1 (yes); on or above 2% is 0 (no).

Please review the entries below; each comes with its answer.
CC(Nc1ccc2c(c1)OCCn1cc(N3C(=O)OCC3C(F)F)nc1-2)C(N)=O (stereo not given) + CCn1c(-c2cc(N3CCN(C)CC3)cnc2C(C)OC)c2c3cc(ccc31)-c1csc(n1)CC(NC(=O)C1CC1C)C(=O)N1CCCC(N1)C(=O)OCC(C)(C)C2	1 (yes)
Nc1ccn(C2OC(CO)C(O)C2(F)F)c(=O)n1 (stereo not given) + CCn1c(-c2cccnc2C(C)OC)c2c3cc(ccc31)N1CCOC(CC(NC(=O)C(C(C)C)N(C)C(=O)C3(F)CCN(C(=O)C#CC(C)(C)N(C)C)CC3)C(=O)N3CCCC(N3)C(=O)OCC(C)(C)C2)C1	0 (no)
O=C(c1ccc(F)c(F)c1Nc1ccc(I)cc1F)N1CC(O)([C@@H]2CCCCN2)C1 + CCn1c(-c2cc(N3CCN(C)CC3)cnc2C(C)OC)c2c3cc(ccc31)-c1csc(n1)CC(NC(=O)C1CC1C)C(=O)N1CCCC(N1)C(=O)OCC(C)(C)C2	1 (yes)
CCC(CC)c1cc(NC2CCC(N)C2)n2nccc2n1 (stereo not given) + CCn1c(-c2cc(N3CCN(C)CC3)cnc2C(C)OC)c2c3cc(ccc31)-c1csc(n1)CC(NC(=O)C1CC1C)C(=O)N1CCCC(N1)C(=O)OCC(C)(C)C2	1 (yes)

Task: Is viability, T/C of Cc1nc(N2CCC3(CC2)COC(C)C3N)c(CO)nc1Sc1ccnc(N)c1Cl (stereo not given) + CCn1c(-c2cc(N3CCN(C)CC3)cnc2C(C)OC)c2c3cc(ccc31)-c1csc(n1)CC(NC(=O)C1CC1C)C(=O)N1CCCC(N1)C(=O)OCC(C)(C)C2 strictly below 2%?
Result: 1 (yes)
